Each record here notes measured FMC63 Binding Score.
# Tested on: FMC63
# Sequence (as listed by the source): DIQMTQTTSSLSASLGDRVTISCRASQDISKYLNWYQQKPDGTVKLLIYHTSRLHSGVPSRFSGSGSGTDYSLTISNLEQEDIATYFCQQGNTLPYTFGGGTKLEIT
# Sequence (as listed by the source): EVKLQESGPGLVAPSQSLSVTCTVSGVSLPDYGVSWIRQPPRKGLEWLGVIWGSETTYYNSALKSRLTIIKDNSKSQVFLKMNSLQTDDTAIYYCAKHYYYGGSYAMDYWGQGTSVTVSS
# method.summary: CD19 variant binding to anti-CD19 antibody FMC63 (score)
# assay.conditions: Table 1B, CD19 triple mutants
metric: FMC63 Binding Score

molecule: W62E/F64C/F66S: CD19 variant (protein) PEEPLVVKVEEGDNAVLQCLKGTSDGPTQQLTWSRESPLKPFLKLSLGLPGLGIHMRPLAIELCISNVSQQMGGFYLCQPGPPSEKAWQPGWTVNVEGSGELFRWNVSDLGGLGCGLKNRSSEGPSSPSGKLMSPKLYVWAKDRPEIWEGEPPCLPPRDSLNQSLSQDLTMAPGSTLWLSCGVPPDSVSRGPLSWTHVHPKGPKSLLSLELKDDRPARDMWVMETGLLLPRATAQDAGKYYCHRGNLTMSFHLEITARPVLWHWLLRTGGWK
observed.value: 12.6

molecule: L59N/I61V/L63L: CD19 variant (protein) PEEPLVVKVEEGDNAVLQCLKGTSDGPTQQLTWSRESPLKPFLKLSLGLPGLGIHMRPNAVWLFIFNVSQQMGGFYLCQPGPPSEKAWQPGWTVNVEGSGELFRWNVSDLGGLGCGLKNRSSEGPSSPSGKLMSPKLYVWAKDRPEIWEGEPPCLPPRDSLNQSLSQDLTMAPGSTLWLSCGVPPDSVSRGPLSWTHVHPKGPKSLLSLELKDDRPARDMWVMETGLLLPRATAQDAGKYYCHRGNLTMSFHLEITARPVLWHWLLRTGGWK
observed.value: 13.9
